Source of measurements: patent EP4509511A1

Test system: STEME
ASSAY_OVERVIEW: Herbicidal pre-emergence action - Part I
Type: in vivo, Stellaria media
MEASUREMENT_CONTEXT: 1280 g/ha, visual grading after ca. 3 weeks vs untreated controls
Recorded pre-emergence activity at 1280g/ha against STEME in % for the following compounds
Please give a number only; it is taken to be in %.

Below: 3 compounds and their reported pre-emergence activity at 1280g/ha against STEME in %.
Cc1ccsc1C1=NOC2(CCCN(Cc3ccccc3F)C2=O)C1 (racemic); 90
COc1ncccc1C1=NOC2(CCN(Cc3cccc(F)c3F)C2=O)C1 (racemic); 90
Cc1ccsc1C1=NOC2(CCN(Cc3ccccc3F)C2=O)C1 (racemic); 100

As a next step, examine the compound that follows.
Given the compound O=C1N(Cc2ccccc2F)CCC12CC(c1c(F)cccc1F)=NO2 (racemic) , what is its reported pre-emergence activity at 1280g/ha against STEME in %?
90

====

Tested on: DIGSA
ASSAY_OVERVIEW: Herbicidal pre-emergence action - Part I
Type: in vivo, Digitaria sanguinalis
MEASUREMENT_CONTEXT: 1280 g/ha, visual grading after ca. 3 weeks vs untreated controls
VALUE_KIND: pre-emergence activity at 1280g/ha against DIGSA in %

Cc1ccsc1C1=NOC2(CCCN(Cc3ccccc3F)C2=O)C1 (racemic) [Compound I-1]; 100%
N#Cc1ncccc1C1=NOC2(CCN(Cc3cccc(F)c3F)C2=O)C1 (racemic) [Compound I-41]; 100%
N#Cc1ncccc1C1=NOC2(CCN(Cc3ccccc3F)C2=O)C1 (racemic) [Compound I-35]; 100%
Cc1ccsc1C1=NOC2(CCCN(Cc3cccc(F)c3F)C2=O)C1 (racemic) [Compound I-3]; 100%
O=C1N(Cc2c(F)cccc2F)CCC12CC(c1ccccc1F)=NO2 (racemic) [Compound I-27]; 90%

// moving on: another record for pre-emergence activity at 1280g/ha against DIGSA in %
Tell me the measured pre-emergence activity at 1280g/ha against DIGSA in % of Cc1ccsc1C1=NOC2(CCCN(Cc3c(F)cccc3F)C2=O)C1 (racemic) [Compound I-2] , please.
100%

====

Tested on: VIOTR
ASSAY_OVERVIEW: Herbicidal post-emergence action - Part II
Assay type: in vivo, Viola tricolor
MEASUREMENT_CONTEXT: 5 g/ha; Table E9a
The compounds listed here are annotated with their post-emergence activity against VIOTR.
Report the figure in % without appending any unit label.

Cn1c(C(F)(F)F)cc(=O)n(-c2cc(C3=NOC4(CCN(Cc5c(F)cccc5F)C4=O)C3)c(Cl)cc2F)c1=O (racemic) [Compound I-29]; 100
COC(=O)CN1CCC2(CC(c3cc(-n4c(=O)cc(C(F)(F)F)n(C)c4=O)c(F)cc3Cl)=NO2)C1=O (racemic) [Compound I-58]; 80

Give recorded post-emergence activity against VIOTR with VIOTR for the following compound: Cn1c(C(F)(F)F)cc(=O)n(-c2cc(C3=NOC4(CCCN(Cc5ccccc5F)C4=O)C3)c(Cl)cc2F)c1=O (racemic) [Compound I-7]
100

// lookup post-emergence activity against VIOTR | system=VIOTR | key= Cn1c(C(F)(F)F)cc(=O)n(-c2cc(C3=NOC4(CCNC4=O)C3)c(Cl)cc2F)c1=O (racemic) [Compound I-71]
80

// fetch VIOTR post-emergence activity against VIOTR for Cn1c(C(F)(F)F)cc(=O)n(-c2cc(C3=NOC4(CCN(Cc5cccc(F)c5F)C4=O)C3)c(Cl)cc2F)c1=O (racemic) [Compound I-33]
100

State its post-emergence activity against VIOTR on VIOTR: Cn1c(C(F)(F)F)cc(=O)n(-c2cc(C3=NOC4(CCN(Cc5ccccc5F)C4=O)C3)c(Cl)cc2F)c1=O (racemic) [Compound I-28]
100

====

Test system: ECHCG
ASSAY_OVERVIEW: Herbicidal post-emergence action - Part I
Assay type: in vivo, Echinochloa crus-galli
MEASUREMENT_CONTEXT: 1280 g/ha, one-leaf stage, rated visually after about 3 weeks vs untreated controls
VALUE_KIND: post-emergence activity at 1280g/ha against ECHCG in % (%)
Write the answer as a number in %, unit excluded.

Record excerpt, results attached:
N#Cc1ncccc1C1=NOC2(CCN(Cc3ccccc3F)C2=O)C1 (racemic) [Compound I-35]; 90
Cc1ccsc1C1=NOC2(CCCN(Cc3cccc(F)c3F)C2=O)C1 (racemic) [Compound I-3]; 90
N#Cc1ncccc1C1=NOC2(CCN(Cc3cccc(F)c3F)C2=O)C1 (racemic) [Compound I-41]; 100
Cc1ccsc1C1=NOC2(CCCN(Cc3c(F)cccc3F)C2=O)C1 (racemic) [Compound I-2]; 90
Cc1ccsc1C1=NOC2(CCCN(Cc3ccccc3F)C2=O)C1 (racemic) [Compound I-1]; 90

Lab note: next molecule to report on.
Request the reported post-emergence activity at 1280g/ha against ECHCG in % associated with Cc1ccccc1CN1CCCC2(CC(c3sccc3C)=NO2)C1=O (racemic) [Compound I-4]
90

====

Test system: DIGSA
ASSAY_OVERVIEW: Herbicidal pre-emergence action - Part I
Format: in vivo, Digitaria sanguinalis
MEASUREMENT_CONTEXT: 320 g/ha, visual grading after ca. 3 weeks vs untreated controls
VALUE_KIND: pre-emergence activity at 320g/ha against DIGSA in %
I'd appreciate it if you wrote the number followed by its unit.

Look over these answered cases.
Cc1ccsc1C1=NOC2(CCCN(Cc3cccc(F)c3F)C2=O)C1 (racemic); 90%
Cc1ccsc1C1=NOC2(CCCN(Cc3c(F)cccc3F)C2=O)C1 (racemic); 100%
N#Cc1ncccc1C1=NOC2(CCN(Cc3ccccc3F)C2=O)C1 (racemic); 100%

Here is another molecule to look at.
Request the reported pre-emergence activity at 320g/ha against DIGSA in % associated with N#Cc1ncccc1C1=NOC2(CCN(Cc3cccc(F)c3F)C2=O)C1 (racemic)
90%

====

Tested on: AMARE
ASSAY_OVERVIEW: Herbicidal post-emergence action - Part I
Assay type: in vivo, Amaranthus retroflexus
MEASUREMENT_CONTEXT: 1280 g/ha, one-leaf stage, rated visually after about 3 weeks vs untreated controls
Below: a set of entries, each annotated with reported post-emergence activity at 1280g/ha against AMARE in %.
Kindly answer with a numeric value in %, unit omitted.

Consider the following illustrative entries.
O=C1N(Cc2c(F)cccc2F)CCC12CC(c1ccccc1F)=NO2 (racemic); 90
Cc1ccsc1C1=NOC2(CCCN(Cc3c(F)cccc3F)C2=O)C1 (racemic); 90
O=C1N(Cc2ccccc2F)CCC12CC(c1c(F)cccc1F)=NO2 (racemic); 90
COc1ncccc1C1=NOC2(CCN(Cc3cccc(F)c3F)C2=O)C1 (racemic); 90
N#Cc1ncccc1C1=NOC2(CCN(Cc3ccccc3F)C2=O)C1 (racemic); 90

I'm curious: which post-emergence activity at 1280g/ha against AMARE in % was measured for Cc1ccsc1C1=NOC2(CCCN(Cc3cccc(F)c3F)C2=O)C1 (racemic) tested on AMARE?
90

So what post-emergence activity at 1280g/ha against AMARE in % did N#Cc1ncccc1C1=NOC2(CCN(Cc3cccc(F)c3F)C2=O)C1 (racemic) get with AMARE?
100

Give the reported post-emergence activity at 1280g/ha against AMARE in % for Cc1ccsc1C1=NOC2(CCCN(Cc3ccccc3F)C2=O)C1 (racemic) (system: AMARE).
90

Return post-emergence activity at 1280g/ha against AMARE in % measured with AMARE given this compound: Cc1ccccc1CN1CCCC2(CC(c3sccc3C)=NO2)C1=O (racemic)
90

====

Listing of recorded post-emergence activity against VERPE by entry.
Tested on: VERPE
ASSAY_OVERVIEW: Herbicidal post-emergence action - Part II
Format: in vivo, Veronica persica
MEASUREMENT_CONTEXT: 20 g/ha; Table E8b
// units = %; emit number, no label

Cn1c(C(F)(F)F)cc(=O)n(-c2cc(C3=NOC4(CCN(Cc5c(F)cccc5F)C4=O)C3)c(Cl)cc2F)c1=O (racemic) [Compound I-29]; 100
Cn1c(C(F)(F)F)cc(=O)n(-c2cc(C3=NOC4(CCCN(Cc5c(F)cccc5F)C4=O)C3)c(Cl)cc2F)c1=O (racemic) [Compound I-6]; 80
Cn1c(C(F)(F)F)cc(=O)n(-c2cc(C3=NOC4(CCN(Cc5cccc(F)c5F)C4=O)C3)c(Cl)cc2F)c1=O (racemic) [Compound I-33]; 100
Cn1c(C(F)(F)F)cc(=O)n(-c2cc(C3=NOC4(CCN(Cc5ccccc5Cl)C4=O)C3)c(Cl)cc2F)c1=O (racemic) [Compound I-30]; 100
CN1CCCC2(CC(c3cc(-n4c(=O)cc(C(F)(F)F)n(C)c4=O)c(F)cc3Cl)=NO2)C1=O (racemic) [Compound I-56]; 100
COC(=O)CN1CCC2(CC(c3cc(-n4c(=O)cc(C(F)(F)F)n(C)c4=O)c(F)cc3Cl)=NO2)C1=O (racemic) [Compound I-58]; 100
Cn1c(C(F)(F)F)cc(=O)n(-c2cc(C3=NOC4(CCCNC4=O)C3)c(Cl)cc2F)c1=O (racemic) [Compound I-67]; 80
Cn1c(C(F)(F)F)cc(=O)n(-c2cc(C3=NOC4(CCN(Cc5ccccc5F)C4=O)C3)c(Cl)cc2F)c1=O (racemic) [Compound I-28]; 100

# get_value(readout='post-emergence activity against VERPE', item= Cn1c(C(F)(F)F)cc(=O)n(-c2cc(C3=NOC4(CCNC4=O)C3)c(Cl)cc2F)c1=O (racemic) [Compound I-71] )
80

Would you mind telling me what post-emergence activity against VERPE value was observed for COC(=O)CN1CCCC2(CC(c3cc(-n4c(=O)cc(C(F)(F)F)n(C)c4=O)c(F)cc3Cl)=NO2)C1=O (racemic) [Compound I-57] ?
100

Fill in: post-emergence activity against VERPE of Cn1c(C(F)(F)F)cc(=O)n(-c2cc(C3=NOC4(CCCN(Cc5ccccc5F)C4=O)C3)c(Cl)cc2F)c1=O (racemic) [Compound I-7] is ___
100
